System: SF-539
protocol-text: Cytotoxicity against human SF539 cells
Type: functional
experimental-conditions: read-out: LC50 (the source's name)

# smi, censor-symbol, CC50, µM
rows = [
    ("COc1ccc(C(=O)n2cc(C=C3C(=O)NC(=S)NC3=O)c3cc(OC)ccc32)cc1", ">", 50),
    ("COc1ccc2c(c1)c(C=C1C(=O)NC(=S)NC1=O)cn2C(=O)c1ccccc1Br", "=", 57.8),
    ("COc1ccc2c(c1)c(C=C1C(=O)NC(=S)NC1=O)cn2C(=O)c1cccc2ccccc12", ">", 100),
    ("O=C1NC(=S)NC(=O)C1=Cc1cn(C(=O)c2cccc3ccccc23)c2ccccc12", "=", 55.6),
]

----------
Test system: HL-60(TB)
protocol-text: Cytotoxicity against human HL-60(TB) cells
Assay type: functional

# smi, system, GI50 / µM
data = [
    ("COc1ccc(C(=O)n2cc(C=C3C(=O)NC(=S)NC3=O)c3cc(OC)ccc32)cc1", "HL-60(TB)", 3.91),
    ("O=C1NC(=S)NC(=O)C1=Cc1cn(C(=O)c2cccc3ccccc23)c2ccccc12", "HL-60(TB)", 3.36),
    ("COc1ccc2c(c1)c(C=C1C(=O)NC(=S)NC1=O)cn2C(=O)c1ccccc1Br", "HL-60(TB)", 3.24),
    ("COc1ccc2c(c1)c(C=C1C(=O)NC(=S)NC1=O)cn2C(=O)c1cccc2ccccc12", "HL-60(TB)", 3.47),
]
